- tested_target: interaction between PD-1 and PD-L1 (Homo sapiens)
- Sequence (Q9NZQ7 19-238 limits assumed): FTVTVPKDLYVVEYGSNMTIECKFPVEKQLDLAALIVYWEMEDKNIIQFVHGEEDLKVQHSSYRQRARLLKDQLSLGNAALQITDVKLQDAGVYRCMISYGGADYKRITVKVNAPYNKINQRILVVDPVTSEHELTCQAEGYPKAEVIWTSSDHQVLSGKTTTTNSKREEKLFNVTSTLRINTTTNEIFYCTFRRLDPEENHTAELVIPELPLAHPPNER
- experimental_details: PD-1/PD-L1 protein-protein interaction assay (ALPHA)
- reported_conditions: 2 nM His-tagged human PD-L1, 0.6 nM PD-1-Fc, AlphaScreen
Reported IC50 values for the following compounds.

# compound, IC50
data = [
    ("COC(=O)[C@@H](CO)NCc1c(OC)cc(-n2ncc3c(-c4cccc(-c5ccc(CNC[C@@H]6CCC(=O)N6)c(OC)n5)c4Cl)cccc32)cc1OC", "< 1 nM"),
    ("COc1cc(-n2ncc3c(-c4cccc(-c5ccc(CN6CC7(CNC(=O)C7)C6)c(OC)n5)c4Cl)cccc32)cc(OC)c1CNCC(C)(C)C(N)=O", "< 1 nM"),
    ("COc1cc(-n2ncc3c(-c4cccc(-c5ccc(CN6CC7(CNC(=O)C7)C6)c(OC)n5)c4Cl)cccc32)ncc1CNCCO", "< 1 nM"),
    ("COc1cc(-n2ncc3c(-c4cccc(-c5ccc(CNC[C@@H](C)O)c(OC)n5)c4Cl)cccc32)cc(OC)c1CNC[C@@H](C)O", "< 1 nM"),
    ("COc1cc(N2CCc3c(-c4cccc(-c5nc6c(s5)CNCC6)c4C)cccc32)cc(OC)c1CNC[C@@H]1CCC(=O)N1", "10 to 100 nM"),
    ("Cn1c(CN[C@@H](CO)C(=O)O)cc2ccc(-n3ccc4c(-c5ccc6c(c5)OCCO6)cccc43)cc21", "> 100 nM"),
    ("COc1cc(-n2ncc3c(-c4cccc(-c5ccc(CN6CC7(CNC(=O)C7)C6)c(OC)n5)c4Cl)cccc32)cc(OC)c1CN[C@@](C)(CO)C(=O)O", "< 1 nM"),
    ("COc1cc(-n2ncc3c(-c4cccc(-c5ccc(CN6CC7(CNC(=O)C7)C6)c(OC)n5)c4Cl)cccc32)cc(OC)c1CN1CC(C)(O)C1", "< 1 nM"),
    ("COc1cc(-n2ncc3c(-c4cccc(-c5ccc(CN[C@H]6C[C@@H](O)C6)c(OC)n5)c4Cl)cccc32)cc(OC)c1CNCCO", "< 1 nM"),
    ("COC(=O)C1CC[C@H](NCc2ccc(-c3cccc(-c4cccc5c4ccn5-c4cc(OC)c(CNC[C@@H]5CCC(=O)N5)c(OC)c4)c3Cl)nc2OC)C1 (stereo partly drawn)", "10 to 100 nM"),
    ("COc1cc(-n2ncc3c(-c4cccc(-c5ccc(CN[C@H]6C[C@@H](O)C6)c(OC)n5)c4Cl)cccc32)cc(OC)c1CN[C@H]1C[C@@H](O)C1", "< 1 nM"),
    ("O=C(O)[C@H](CO)NCc1ccc(-n2ccc3c(-c4ccc5c(c4)OCCO5)cccc32)nc1", "> 100 nM"),
    ("COc1cc(-n2ncc3c(-c4cccc(-c5ccc(C6=NCCN6)c(OC)n5)c4Cl)cccc32)cc(OC)c1CNC[C@H]1C[C@@H](O)C1", "< 1 nM"),
    ("Cc1cc(CN2CC(C)(C(=O)O)C2)cc(-n2ccc3c(-c4ccc5c(c4)OCCO5)cccc32)n1", "> 100 nM"),
    ("COc1cc(-n2ncc3c(-c4cccc(-c5ccc(CN[C@H]6C[C@@H](O)C6)c(OC)n5)c4Cl)cccc32)cc(OC)c1CN[C@H](CO)C(=O)O", "< 1 nM"),
    ("COc1cc(-n2ncc3c(-c4cccc(-c5ccc(CN6CC(C)(C(N)=O)C6)c(OC)n5)c4Cl)cccc32)cc(OC)c1CN1CC(C)(O)C1", "1 to 10 nM"),
    ("COc1cc(-n2ncc3c(-c4cccc(-c5ccc(CN6CC(C(C)(C)O)C6)c(OC)n5)c4Cl)cccc32)cc(OC)c1CN1CC2(CCC(=O)N2)C1", "1 to 10 nM"),
    ("COc1cc(-n2ncc3c(-c4cccc(-c5ccc(CN6CC(C)(O)C6)c(OC)n5)c4Cl)cccc32)cc(OC)c1CNC[C@@H]1CCC(=O)N1", "10 to 100 nM"),
    ("COc1cc(-n2ncc3c(-c4cccc(-c5ccc(CN6CC(C)(C(=O)NC7CC7)C6)c(OC)n5)c4Cl)cccc32)cc(OC)c1CNC[C@@H]1CCC(=O)N1", "< 1 nM"),
    ("COc1cc(-n2ccc3c(-c4cccc(-c5ccc(CNC[C@@H]6CCC(=O)N6)c(OC)n5)c4Cl)cccc32)cc(OC)c1CN1CC[C@H](O)C1", "1 to 10 nM"),
    ("c1cc(-c2ccc3c(c2)OCCO3)c2ccn(-c3nc4c(s3)CNCC4)c2c1", "> 100 nM"),
    ("COc1cc(-n2ccc3c(-c4cccc5c4ccn5-c4cc(OC)c(CNC[C@@H]5CCC(=O)N5)c(OC)c4)cccc32)cc(OC)c1CNC[C@@H]1CCC(=O)N1", "1 to 10 nM"),
    ("COc1cc(-n2ncc3c(-c4cccc(-c5ccc(CNC[C@H]6C[C@@H](O)C6)c(OC)n5)c4Cl)cccc32)cc(OC)c1CNC[C@@H]1CCC(=O)N1", "1 to 10 nM"),
    ("CCOC(=O)[C@@H](NCc1c(OC)cc(-n2ncc3c(-c4cccc(-c5ccc(CN6CC7(CNC(=O)C7)C6)c(OC)n5)c4Cl)cccc32)cc1OC)[C@@H](C)O", "1 to 10 nM"),
]

====

Reported pIC50 values for the following molecules.
- tested_target: interaction between PD-1 and PD-L1 (Homo sapiens)
- experimental_details: PD-1/PD-L1 protein-protein interaction assay (ALPHA)
- reported_conditions: 2 nM His-tagged human PD-L1, 0.6 nM PD-1-Fc, AlphaScreen
pIC50: −log10 of the molar value.

# molecule, tested_target, pIC50
rows = [
    ("COc1cc(-n2ncc3c(-c4cccc(-c5ccc(CN6CC7(CNC(=O)C7)C6)c(OC)n5)c4Cl)cccc32)cc(OC)c1CNC[C@@H](C)O [Example 112]", "interaction between PD-1 and PD-L1 (Homo sapiens)", "> 9.00"),
    ("COc1cc(-n2ncc3c(-c4cccc(-c5ccc(CN6CC(C)(C(=O)NC7CC7)C6)c(OC)n5)c4Cl)cccc32)cc(OC)c1CNC[C@H]1C[C@@H](O)C1 [Example 95]", "interaction between PD-1 and PD-L1 (Homo sapiens)", "8.00 to 9.00"),
    ("COc1cc(-n2ncc3c(-c4cccc(Nc5nc(C(F)F)nc6cc(CN7CC[C@@H](O)C7)cnc56)c4C)cccc32)cc(OC)c1CN(C)C12CCC(C(=O)O)(CC1)CC2 [Example 166]", "interaction between PD-1 and PD-L1 (Homo sapiens)", "> 9.00"),
    ("COc1cc(-n2ncc3c(-c4cccc(-c5ccc(CN[C@H]6C[C@@H](O)C6)c(OC)n5)c4Cl)cccc32)cc(OC)c1CN[C@@H](C)CO [Example 119]", "interaction between PD-1 and PD-L1 (Homo sapiens)", "> 9.00"),
    ("COc1cc(-n2ncc3c(-c4cccc(-c5nc6cc(CN7CC[C@@H](C(=O)O)C7)cc(C#N)c6o5)c4C)cccc32)cc(OC)c1CN1CC[C@H](O)C1 [Example 155]", "interaction between PD-1 and PD-L1 (Homo sapiens)", "> 9.00"),
    ("COc1cc(-n2ccc3c(-c4ccc5c(c4)OCCO5)cccc32)cnc1CNC[C@@H]1CCC(=O)N1 [Example 61]", "interaction between PD-1 and PD-L1 (Homo sapiens)", "< 7.00"),
    ("COc1cc(-n2ncc3c(-c4cccc(-c5ccc(CN6CC7(CNC(=O)C7)C6)c(OC)n5)c4Cl)cccc32)cc(OC)c1CNC[C@H]1C[C@@H](O)C1 [Example 91]", "interaction between PD-1 and PD-L1 (Homo sapiens)", "8.00 to 9.00"),
    ("COc1cc(-n2ccc3c(-c4cccc(-c5ccc(CNC[C@@H]6CCC(=O)N6)c(OC)n5)c4Cl)cccc32)cc(OC)c1CN1CC(C)(O)C1 [Example 53]", "interaction between PD-1 and PD-L1 (Homo sapiens)", "> 9.00"),
    ("COc1nc(-n2ccc3c(-c4ccc5c(c4)OCCO5)cccc32)ccc1CN1CC2(C1)CN(C(C)=O)C2 [Example 58]", "interaction between PD-1 and PD-L1 (Homo sapiens)", "< 7.00"),
    ("COc1cc(-n2ccc3c(-c4cccc(NC(=O)c5nc6c(s5)CN(C)CC6)c4C)cccc32)cc(OC)c1CNC[C@@H]1CCC(=O)N1 [Example 67]", "interaction between PD-1 and PD-L1 (Homo sapiens)", "8.00 to 9.00"),
    ("COc1nc(-n2ccc3c(-c4ccc5c(c4)OCCO5)cccc32)ccc1CN1CC(C)(O)C1 [Example 12]", "interaction between PD-1 and PD-L1 (Homo sapiens)", "< 7.00"),
    ("COc1cc(-n2ccc3c(-c4cccc(-c5ccc(CNC[C@H]6C[C@@H](O)C6)c(OC)n5)c4Cl)cccc32)cc(OC)c1CNC[C@@H]1CCC(=O)N1 [Example 82]", "interaction between PD-1 and PD-L1 (Homo sapiens)", "8.00 to 9.00"),
    ("COc1cc(-n2ncc3c(-c4cccc(-c5ccc(CN[C@H]6C[C@@H](O)C6)c(OC)n5)c4Cl)cccc32)ncc1CN[C@H]1C[C@@H](O)C1 [Example 106]", "interaction between PD-1 and PD-L1 (Homo sapiens)", "> 9.00"),
    ("COc1cc(-n2ncc3c(-c4cccc(-c5ccc(CN[C@H]6C[C@@H](O)C6)c(OC)n5)c4Cl)cccc32)cc(OC)c1CNCC1(C(N)=O)CC1 [Example 131]", "interaction between PD-1 and PD-L1 (Homo sapiens)", "8.00 to 9.00"),
]

Source: patent US20240336601A1
